Form field: −ΔH (one value per entry).
target: human galectin-3 (hGal-3) (Homo sapiens); construct: P.K. and P.B. prepared recombinant full-length hGal-3 and contributed to the ITC experiments; made in house; test: Isothermal titration calorimetry (ITC) of sugar analogs with recombinant hGal-3; format: binding; conditions: 27 °C, binding enthalpy, lectin monomer units, errors 1–4%
Sequence (P17931 whole entry): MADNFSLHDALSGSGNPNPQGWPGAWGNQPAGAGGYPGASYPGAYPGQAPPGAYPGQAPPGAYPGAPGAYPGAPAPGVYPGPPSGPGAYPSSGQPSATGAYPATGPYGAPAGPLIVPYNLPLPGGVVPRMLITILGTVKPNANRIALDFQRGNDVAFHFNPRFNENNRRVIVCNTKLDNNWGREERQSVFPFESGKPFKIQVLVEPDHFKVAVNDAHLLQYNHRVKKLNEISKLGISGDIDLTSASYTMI
Write it as a number; the unit kcal/mol goes unstated.

[[record]]
smiles_structure = "C#CCO[C@@H]1O[C@H](CO)[C@@H](O[C@@H]2O[C@H](CO)[C@H](O)[C@H](OS(=O)(=O)O)[C@H]2O)[C@H](O)[C@H]1NC(C)=O"
data_value = 5.2

[[record]]
smiles_structure = "C#CCO[C@@H]1O[C@H](CO)[C@@H](O[C@@H]2O[C@H](CO)[C@H](O)[C@H](O)[C@H]2O)[C@H](O)[C@H]1O"
data_value = 5.7

[[record]]
smiles_structure = "CC(=O)N[C@H]1[C@H](Oc2ccc([N+](=O)[O-])cc2)O[C@H](CO)[C@@H](O[C@@H]2O[C@H](CO)[C@H](O)[C@H](O)[C@H]2O)[C@@H]1O"
data_value = 7.3


Please fill in: −ΔH reported for `O=[N+]([O-])c1ccc(O[C@@H]2O[C@H](CO)[C@@H](O[C@@H]3O[C@H](CO)[C@H](O)[C@H](O)[C@H]3O)[C@H](O)[C@H]2O)cc1` = 3.7

Lab note: measured −ΔH of `O=[N+]([O-])c1ccc(O[C@@H]2O[C@H](CO)[C@@H](O[C@@H]3O[C@H](CO)[C@H](O)[C@H](OS(=O)(=O)O)[C@H]3O)[C@H](O)[C@H]2O)cc1` was 6.0

Short answer for `C#CCO[C@@H]1O[C@H](CO)[C@@H](O[C@@H]2O[C@H](CO)[C@H](O)[C@H](O)[C@H]2O)[C@H](O)[C@H]1NC(C)=O` : −ΔH was 4.2
